Method Notes: Aqueous solubility at pH 3
Format: physicochemical
Value Type: solubility (µM)
Answers are plain numbers, in µM.

// solubility lookup, compound = `COc1c(C)cnc(CN2CC(=O)Nc3c(Cl)nc(N)nc32)c1C` , result: 381

###

Tested Target: Heat shock protein HSP90 (Homo sapiens, UniProt P07900+P08238)
Method Notes: Inhibition of HSP90 in human SKBR3 cells assessed as induction of Her2 degradation
Assay type: cell-based
Recorded Conditions: sk-br-3
Labelling: IC50 reported below 600 nM becomes met; at or above becomes not met.

Past entries and their recorded results:
>>> print(df.to_string())
                                   compound                             tested_target  assigned_category
0  COc1c(C)cnc(CN2c3nc(N)nc(Cl)c3NC(=O)[C@@H]2C(C)C)c1C  Heat shock protein HSP90 (Homo sapiens, UniProt P07900+P08238)            not met
1  COc1c(C)cnc(CN2c3nc(N)nc(Cl)c3NC(=O)[C@@H]2C)c1C  Heat shock protein HSP90 (Homo sapiens, UniProt P07900+P08238)                met
2  COc1nc(CN2CC(=O)N(CC(C)C)c3c(Cl)nc(N)nc32)c(Cl)c(OC)c1OC  Heat shock protein HSP90 (Homo sapiens, UniProt P07900+P08238)            not met
3  COc1c(C)cnc(CN2CC(=O)N(CCCC(C)C)c3c(Cl)nc(N)nc32)c1C  Heat shock protein HSP90 (Homo sapiens, UniProt P07900+P08238)            not met
4  COc1c(C)cnc(CN2c3nc(N)nc(Cl)c3NC(=O)[C@H]2C)c1C  Heat shock protein HSP90 (Homo sapiens, UniProt P07900+P08238)                met
5  COc1c(C)cnc(CN2CC(=O)N(C(=O)NCCN3CCOCC3)c3c(Cl)nc(N)nc32)c1C  Heat shock protein HSP90 (Homo sapiens, UniProt P07900+P08238)            not met

In the following, a different compound is considered.
Q: For this compound, is IC50 lower than 600 nM? `COc1nc(N)nc2c1N(CC(C)C)C(=O)CN2Cc1ncc(C)c(OC)c1C`
Result: not met

###

Answer each item with its documented pIC50.
System: BT-474
Method Notes: Growth inhibition of human BT474 cells
Type: functional, cell-based
Give bare numbers, as −log10 of the molar value.

I would be grateful if you could provide pIC50 for each of the following entries.
1. COc1c(C)cnc(CN2CC(=O)N(CCN3CCCC3)c3c(Cl)nc(N)nc32)c1C
2. COc1c(C)cnc(CN2CC(=O)N(CC(C)C)c3c(Cl)nc(N)nc32)c1C
3. COc1c(C)cnc(CN2CC(=O)N(C(C)C)c3c(Cl)nc(N)nc32)c1C
4. COc1c(C)cnc(CN2c3nc(N)nc(Cl)c3N(C(C)C)C(=O)[C@@H]2C(C)C)c1C
5. COc1c(C)cnc(CN2c3nc(N)nc(Cl)c3NC(=O)[C@H]2C)c1C
6. COc1c(C)cnc(CN2c3nc(N)nc(Cl)c3NC(=O)[C@@H]2CC(C)C)c1C
7. COc1ccnc(CN2CC(=O)N(CC(C)C)c3c(Cl)nc(N)nc32)c1OC

Result:
1: 6.28; 2: 7.70; 3: 7.52; 4: 7.70; 5: 6.39; 6: 6.31; 7: 7.52

For each entry beneath this line, provide reported pIC50.
1. Cc1cnc(CN2CC(=O)N(CC(C)C)c3c(Cl)nc(N)nc32)c(C)c1Br
2. COc1c(C)cnc(CN2CC(=O)Nc3c(Cl)nc(N)nc32)c1C
3. COc1c(C)cnc(CN2CC(=O)N(CCCN3CCOCC3)c3c(Cl)nc(N)nc32)c1C
4. Cc1cnc(CN2CC(=O)N(CC(C)C)c3c(Cl)nc(N)nc32)c(C)c1Cl
5. COc1c(C)cnc(CN2CC(OC3CCCC3)=Nc3c(Cl)nc(N)nc32)c1C
6. COc1c(C)cnc(CN2CC(=O)N(C)c3c(Cl)nc(N)nc32)c1C

Result:
[6.89, 6.19, 5.74, 6.62, 8.00, 6.02]

###

Give measured IC50 for each item. Keep answers brief.
Test system: HT-29
Method Notes: Growth inhibition of human HT-29 cells
Assay type: functional, cell-based
Numbers only, in nM.

Worked cases, IC50 given:
In [3]: df
Out[3]:
                  compound_structure_string  test_value
0  Cc1cnc(CN2CC(=O)N(CC(C)C)c3c(Cl)nc(N)nc32)c(C)c1Cl         280
1  COc1c(C)cnc(CN2c3nc(N)nc(Cl)c3NC(=O)[C@@H]2C)c1C         660
2  COc1c(C)cnc(CN2CC(=O)N(C)c3c(Cl)nc(N)nc32)c1C        1470
3  COc1c(C)cnc(CN2c3nc(N)nc(Cl)c3NC(=O)[C@@H]2C(C)C)c1C        1060
4  COc1c(C)cnc(CN2CC(OC3CCCC3)=Nc3c(Cl)nc(N)nc32)c1C          20
5  COc1ccnc(CN2CC(=O)N(CC(C)C)c3c(Cl)nc(N)nc32)c1OC          40
6  COc1c(C)cnc(CN2CC(=O)N(C3CCCC3)c3c(Cl)nc(N)nc32)c1C         330
7  COc1c(C)cnc(CN2CC(=O)N(CCN3CCCC3)c3c(Cl)nc(N)nc32)c1C        1080
8  COc1c(C)cnc(CN2c3nc(N)nc(Cl)c3N(C(C)C)C(=O)[C@@H]2C(C)C)c1C          90

Note: attention shifts to another entry.
// IC50 lookup, compound = `COc1c(C)cnc(CN2CC(=O)N(CCCN3CCOCC3)c3c(Cl)nc(N)nc32)c1C` , result: 2950

###

Method Notes: Metabolic stability in human liver microsomes
Assay type: ADME, Microsome
Value Type: half-life

Measured half-life of `COc1c(C)cnc(CN2CC(=O)Nc3c(Cl)nc(N)nc32)c1C` : > 1 h

###

System: BT-474
Method Notes: Growth inhibition of human BT474 cells
Format: functional, cell-based
Kindly state pIC50 for each of the entries shown.
Answers are plain numbers, as −log10 of the molar value.

Before answering, review these 3 worked examples.
                                   compound  test_value
0  COc1c(C)cnc(CN2CC(=O)N(C3CCCC3)c3c(Cl)nc(N)nc32)c1C        6.54
1  COc1c(C)cnc(CN2CC(=O)N(CCCC(C)C)c3c(Cl)nc(N)nc32)c1C        5.78
2  COc1c(C)cnc(CN2c3nc(N)nc(Cl)c3NC(=O)[C@@H]2C(C)C)c1C        6.12

Parameter requested: pIC50. Apply to each item below.
1. COc1c(C)cnc(CN2c3nc(N)nc(Cl)c3NC(=O)[C@@H]2C)c1C
2. COc1c(C)cnc(CN2CC(=O)N(C(C)C(=O)NCCN(C)C)c3c(Cl)nc(N)nc32)c1C (stereo not given)

Result:
[6.33, 7.22]

###

Method Notes: Metabolic stability in rat liver microsomes
Assay type: ADME, Microsome
Value Type: half-life

Sure, the documented half-life for `COc1c(C)cnc(CN2CC(=O)Nc3c(Cl)nc(N)nc32)c1C` is > 1 h

###

Tested Target: Heat shock protein HSP90 (Homo sapiens, UniProt P07900+P08238)
Method Notes: Inhibition of HSP90 in human SKBR3 cells assessed as induction of Her2 degradation
Format: cell-based
Recorded Conditions: sk-br-3
IC50 strictly less than 400 nM = Criterion met. Otherwise Criterion not met.

Worked cases, answers included:
>>> print(df.to_string())
                                   molecule  assigned_category
0  Cc1cnc(CN2CC(=O)N(CC(C)C)c3c(Cl)nc(N)nc32)c(C)c1Cl  Criterion not met
1  COc1c(C)cnc(CN2c3nc(N)nc(Cl)c3N(CC(C)C)C(=O)[C@@H]2C(C)C)c1C  Criterion not met
2  COc1c(C)cnc(CN2c3nc(N)nc(Cl)c3NC(=O)[C@@H]2CC(C)C)c1C      Criterion met
3  COc1c(C)cnc(CN2c3nc(N)nc(Cl)c3NC(=O)[C@@H]2CCO)c1C      Criterion met
4  COc1c(C)cnc(Cn2c(=O)c(=O)[nH]c3c(Cl)nc(N)nc32)c1C  Criterion not met

Q: Threshold test, IC50 < 400 nM: `Cc1cnc(CN2CC(=O)N(CC(C)C)c3c(Cl)nc(N)nc32)c(C)c1Br`
Result: Criterion met

Q: Decide: IC50 of `COc1c(C)cnc(CN2CC(=O)N(C3CCCC3)c3c(Cl)nc(N)nc32)c1C` strictly below 400 nM?
Result: Criterion met

Q: API: query returns whether the molecule falls strictly under 400 nM in IC50. Query: `COc1c(C)cnc(CN2CCNc3c(Cl)nc(N)nc32)c1C`
Result: Criterion not met

Q: Please let me know if `COc1c(C)cnc(CN2CC(=O)Nc3c(Cl)nc(N)nc32)c1C` shows IC50 below 400 nM.
Result: Criterion not met

Q: Could you please tell me whether IC50 recorded for `COc1c(C)cnc(CN2c3nc(N)nc(Cl)c3N(CC(C)C)C(=O)[C@@H]2C)c1C` is less than 400 nM?
Result: Criterion not met

Q: Strictly below 400 nM: is that where IC50 of `COc1c(C)cnc(CN2CC(=O)N(C(C)C)c3c(Cl)nc(N)nc32)c1C` sits?
Result: Criterion met

Q: Regarding `COc1c(C)cnc(CN2CC(=O)N(CC(C)C)c3c(Cl)nc(N)nc32)c1C` , kindly confirm whether its IC50 is beneath 400 nM.
Result: Criterion met
